Target: Bcl-XL (Homo sapiens)
Sequence (Q07817 whole entry, species assumed): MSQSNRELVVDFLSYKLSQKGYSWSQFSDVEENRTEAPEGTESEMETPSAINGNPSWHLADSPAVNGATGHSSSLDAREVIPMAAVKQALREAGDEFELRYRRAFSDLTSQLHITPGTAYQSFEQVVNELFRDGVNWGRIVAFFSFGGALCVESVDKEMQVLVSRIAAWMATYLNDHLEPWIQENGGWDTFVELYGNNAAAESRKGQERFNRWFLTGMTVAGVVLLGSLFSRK
Test: Fluorescence polarisation, Kd of peptide with GST-Bcl-XL
Assay type: binding
Settings: 15 nM peptide labelled with fluorescein at the N-terminal end; GST-Bcl-XL 1 nM to 5 μM; pH 7.4; FIG. 2; read-out: Kd obtained with Bcl-XL
No end group written: not given here.
MEASURED PARAMETER: pKd
// pKd is dimensionless: -log10 of concentration (M)

What value of pKd has been recorded for this entry: DTRRSMVFARHLREVGDEFRSR [peptide obtained in Example 1] 6.67

----------
Biological target: Bcl-W (Homo sapiens, UniProt Q92843)
Sequence (Q92843 whole entry, species assumed): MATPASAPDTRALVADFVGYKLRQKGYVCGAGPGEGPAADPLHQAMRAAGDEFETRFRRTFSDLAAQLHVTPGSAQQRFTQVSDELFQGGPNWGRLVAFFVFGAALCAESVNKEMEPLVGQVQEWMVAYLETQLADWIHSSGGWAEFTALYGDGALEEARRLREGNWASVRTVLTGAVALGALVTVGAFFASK
Test: Fluorescence polarisation, Kd of peptide with GST-Bcl-W
Assay type: binding
Details: 15 nM peptide labelled with fluorescein at the N-terminal end; GST-Bcl-W 1 nM to 5 μM; pH 7.4; FIG. 3; read-out: Kd obtained with Bcl-W
No end group written: not given here.
MEASURED PARAMETER: pKd
// pKd is dimensionless: -log10 of concentration (M)

What value of pKd has been recorded for this entry: DTRRSMVFARHLREVGDEFRSR [peptide obtained in Example 1] 6.39
